meta.source: PubChem BioAssay AID2315

Experiment: A qHTS for Small Molecule Inhibitors of Shiga Toxin
Settings: Vero cells, Shiga toxin protein synthesis inhibition reporter; at 38.7 µM, active compounds read high
Out of some 290,000 compounds screened, about 27,000 (9.3%) were called active. The sample as a whole holds a higher share of actives than the screen did.
measured metric: inhibition (%)
Write it as a number; the unit % goes unstated.

Record summary for COC(=O)c1sc(-c2ccc(C(C)(C)C)cc2)cc1NC(=O)/C=C/C(=O)O : reported inhibition = 108

Record summary for Cc1ccc2[nH]c(=O)c(CC(=O)O)c(-c3ccccc3)c2c1 : reported inhibition = 1.65

Record summary for Cc1cc(C)cc(NC(=O)N2CCCCCCC2)c1 : reported inhibition = -6.48

Record summary for O=C(Nc1ccc2c(c1)OCCO2)c1ccc(Cl)c(S(=O)(=O)N2CCCCC2)c1 : reported inhibition = 147

Record summary for COc1cccc(N(C(=O)C2COc3ccccc3O2)C(C(=O)NC2CCCCC2)c2ccc(O)cc2)c1 (stereo unspecified) : reported inhibition = -2.98

Record summary for O=C(Nc1ccc(F)cc1)c1cc2c(s1)CCCC2 : reported inhibition = 127

Record summary for CC(NC(=O)C(=O)NN=C1CCC(C(C)(C)C)CC1)c1ccccc1 (stereo unspecified) : reported inhibition = -9.73

Record summary for Cc1ccc(C(=O)Nc2ccc3c(c2)OCO3)cc1S(=O)(=O)N1CCCCC1 : reported inhibition = 43.9

Record summary for COC(=O)c1ccc(N2CCOCC2)c(NC(=O)c2ccc3c(c2)OCCO3)c1 : reported inhibition = 17.9

Record summary for CCS(=O)(=O)C1=NSC2=NC(=O)/C(=C\c3ccc(OS(=O)(=O)c4ccccc4)cc3)C(=N)N21 : reported inhibition = 14.7

Record summary for CCCc1nnc(NC(=O)CCC(=O)NC2CC2)s1 : reported inhibition = -4.93

Record summary for Cc1cc2c(cc1S(=O)(=O)CCC(=O)NCc1ccccc1)OCC(=O)N2 : reported inhibition = 9.17

Record summary for Cc1ccc2cc3cc(C(=O)N4CCCCCC4)oc3nc2c1 : reported inhibition = 88.9

Record summary for CN1CCN(c2ccc(NC(=O)c3ccc4c(c3)OCCO4)cc2Cl)CC1 : reported inhibition = 77.9

Record summary for COc1ccc2c(c1OC)C(=O)N(c1ccc(O)cc1)C2 : reported inhibition = 29.7

Record summary for Cc1ccccc1CSc1nnc(-c2ccccn2)n1N : reported inhibition = 62.4

Record summary for CCN(CC)CCCNC(=O)c1cn(C)c2ccc(S(=O)(=O)N(C)C3CCCCC3)cc2c1=O : reported inhibition = -11.8

Record summary for CCc1c(C)nc(N)n2c(SCC(=O)NC3CCCCC3)nnc12 : reported inhibition = -19.4

Record summary for Fc1ccccc1N=C1Nc2cccc3cccc1c23 : reported inhibition = 59

Record summary for Cc1ccc([N+](=O)[O-])cc1S(=O)(=O)N1CCCN(C)CC1 : reported inhibition = -3.46

Record summary for CCn1c(CC(=O)Nc2ccccc2C)nnc1SCC(=O)NC1=NCCS1 : reported inhibition = 2.84

Record summary for CSc1ncccc1C(=O)OCC(=O)N1CCOCC1 : reported inhibition = -2.04

Record summary for O=C(CNC(=O)c1cc2c(s1)CCC2)Nc1ccccc1Br : reported inhibition = 61.2

Record summary for c1ccc(C2=Nc3cccc4cccc(c34)N2)cc1 : reported inhibition = 3.03

Record summary for CSc1ncccc1C(=O)OCc1ccc(Br)cc1 : reported inhibition = 42

Record summary for COc1ccc(NC2CCCN(C(=O)c3ccncc3)C2)cc1 (stereo unspecified) : reported inhibition = -17.1

Record summary for O=C(O)/C=C/C(=O)Nc1ccc(F)cc1F : reported inhibition = -11.9

Record summary for COc1ccc(/C=C2\SC(=S)N(CCC(=O)Nc3ccccn3)C2=O)cc1OC : reported inhibition = -13.3

Record summary for Cc1cc(N/C=C\C(=O)c2ccc(Cl)c(Cl)c2)no1 : reported inhibition = 59.9

Record summary for CCC(C)(C)C1CCC(=NNC(=O)c2ccc(Br)o2)CC1 (stereo unspecified) : reported inhibition = 123

Record summary for COc1ccc(C(=O)Nc2ccccc2C(=O)N2CCN(c3ccccc3)CC2)cc1 : reported inhibition = -6.97

Record summary for Cn1c(SCC(=O)C(C)(C)C)nnc1-c1ccccn1 : reported inhibition = 51.8

Record summary for C=CCN(CC=C)S(=O)(=O)c1ccc(C(=O)Nc2sc3c(c2C(N)=O)CCCCC3)cc1 : reported inhibition = -0.928

Record summary for Cc1cccc(C(=O)N2CCCN(C(=O)c3cccc(C)c3)CC2)c1 : reported inhibition = 19.1

Record summary for CSc1ncccc1C(=O)NC1CCCCCC1 : reported inhibition = 27.5

Record summary for Nc1nonc1-n1nnc(C(=O)N/N=C/c2c[nH]c3ccccc23)c1-c1ccccc1 : reported inhibition = -17

* * *

Assay: A qHTS for Small Molecule Inhibitors of Shiga Toxin
Details: Vero cells, Shiga toxin protein synthesis inhibition reporter; at 38.7 µM, active compounds read high
Out of some 290,000 compounds screened, about 27,000 (9.3%) were called active. The full list was thinned out, with actives kept by preference.
measured metric: inhibition (%)
Write it as a number; the unit % goes unstated.

Record summary for COc1ccc(-c2nnc3n2CCCCC3)cc1 : reported inhibition = 5.25

Record summary for CN1C2C=C(N(C(=O)c3ccc(Cl)cc3)c3ccccc3)CC1CC2 (centres undefined) : reported inhibition = -14.6

Record summary for Cc1nc2ccccc2n1CC(O)c1ccccc1 (centres undefined) : reported inhibition = -2.2

Record summary for Cn1cncc1COC(=O)c1ccc(Cl)cc1 : reported inhibition = 0.74

* * *

Test: A qHTS for Small Molecule Inhibitors of Shiga Toxin
Details: Vero cells, Shiga toxin protein synthesis inhibition reporter; at 38.7 µM
Screen size: about 290,000 compounds; about 27,000 (9.3%) were called active. No stated cut-off is given here; in the data, active means inhibition mostly above about 28% (no sharp cut-off); inactive means mostly below about 43%. Only a selection was taken, and actives are over-represented in it overall.
Lab note: assign the record to one of Y for active, N for inactive

Outcome? O=C(NCCCN1CCOCC1)c1cc(-c2ccccc2F)no1 Y

Outcome? COc1cc(SC)ccc1C(=O)NCCOc1ccccc1Cl Y

Outcome? Cc1ccnc(NC(=O)c2ccoc2C)c1 Y

Outcome? O=C(NCCCN1CCOCC1)c1cc(-c2ccc(Cl)cc2)on1 N

Outcome? Cc1ccnc(NC(=O)C(C)N2C(=O)c3ccccc3C2=O)c1 (stereo not drawn) N

Outcome? Cc1ccnc(NC(=O)CCCOc2ccccc2)c1 N

Outcome? O=C(NCCCN1CCOCC1)c1ccccc1NS(=O)(=O)c1ccc(F)cc1 N

Outcome? COc1ccccc1OCCNC(=O)CCNC(=O)c1ccccc1Cl N

* * *

Experiment: A qHTS for Small Molecule Inhibitors of Shiga Toxin
Conditions: Vero cells, Shiga toxin protein synthesis inhibition reporter; at 38.7 µM
The campaign covered roughly 290,000 compounds. About 27,000 (9.3%) were called active. Cut-off read from the data, not from the text of the source: active = inhibition mostly above about 28% (no sharp cut-off); inactive = mostly below about 43%. Many of the other results were omitted from the sample, so actives are more common in it than they were.
Lab note: assign the record to one of true (1) for active, false (0) for inactive

Outcome? O=C(O)c1cccc2c1C(=O)N(C1CCCC1)C2 false (0)

Outcome? O=C(N/N=C/c1ccc(OCc2ccccc2)cc1)c1ccc(O)cc1 false (0)

Outcome? O=C(CNC(=O)c1ccc(F)cc1)c1ccccc1 true (1)

Outcome? O=C(Nc1ccc(S(=O)(=O)N2CCCCCC2)cc1)c1c(F)cccc1F false (0)

* * *

Assay: A qHTS for Small Molecule Inhibitors of Shiga Toxin
Conditions: Vero cells, Shiga toxin protein synthesis inhibition reporter; at 38.7 µM, active compounds read high
Among all 290,000 compounds or so, about 27,000 (9.3%) were called active. Many of the other results were omitted from the sample, so actives are more common in it than they were.
measured metric: inhibition (%)
Write it as a number; the unit % goes unstated.

Record summary for O=C(O)c1ccccc1-c1ccccc1C(=O)NCc1cccnc1 : reported inhibition = -3.52

Record summary for CN(Cc1ccccc1)S(=O)(=O)c1nnc(NC(=O)c2ccccc2F)s1 : reported inhibition = -6.12

Record summary for O=C(Nc1nc(-c2cccnc2)cs1)c1ccccc1F : reported inhibition = 166

Record summary for Cc1ccccc1Nc1nc(-c2cccnc2)cs1 : reported inhibition = 76.4

Record summary for Nc1c(NCCc2ccccc2)c2ccccc2oc1=O : reported inhibition = 60.3

Record summary for O=C(NCc1cccnc1)Nc1ccccc1F : reported inhibition = 19.6

Record summary for CCCCC(=O)Nc1nnc(S(=O)(=O)N(C)Cc2ccco2)s1 : reported inhibition = 10.1

Record summary for Cc1ccc(-n2c(C)cc(/C=N/Nc3ccc([N+](=O)[O-])cn3)c2C)c(C)c1 : reported inhibition = 50.3

Record summary for CC(C)CC(O)C1CCN(C(=O)CCc2nnc(-c3ccc4c(c3)OCO4)o2)CC1 (stereo not drawn) : reported inhibition = -6.93

Record summary for COCCCNC(=O)/C(C#N)=C/c1c(N2CCCCCC2)nc2ccccn2c1=O : reported inhibition = -3.53

Record summary for COc1ccc(N(Cc2ccc(N(C)C)cc2)C(=O)c2ccc(S(C)(=O)=O)cc2)cc1 : reported inhibition = -10.5

Record summary for CCN(Cc1ccncc1)C(=O)CCc1ccccc1 : reported inhibition = -7.55

Record summary for O=C1CCC(CCC(=O)N2CCCC(C(=O)c3ccc(Cl)cc3)C2)=NN1 (stereo not drawn) : reported inhibition = 12.9

Record summary for CC(C)=NN1C(=O)c2ccccc2NC1(C)C : reported inhibition = 91.4

Record summary for O=C(Nc1nnc(-c2ccccc2F)s1)c1ccccc1F : reported inhibition = 58

Record summary for COc1ccc(Nc2nnc(C)c3ccccc23)cc1 : reported inhibition = 106

Record summary for COc1ccc(Nc2nc(=O)[nH]nc2C)cc1 : reported inhibition = 16.1

Record summary for Cc1ccc(-c2noc(CNC(=O)c3ccoc3C)n2)cc1 : reported inhibition = -9.24

Record summary for NC(=O)CN1CCCC1c1ccc2c(c1)OCCO2 (stereo not drawn) : reported inhibition = -2.56

Record summary for CC(=O)Nc1ccc(-c2csc(NC(=O)Nc3ccccc3)n2)cc1 : reported inhibition = 42

Record summary for O=C(O)CSCc1nc2ccccc2s1 : reported inhibition = 49.5

Record summary for O=C(Nc1ccccc1)Nc1nc2ccccc2s1 : reported inhibition = 106

Record summary for O=C(O)CS/C(=C\c1ccc(F)cc1)c1nc2ccccc2s1 : reported inhibition = 121

Record summary for Cc1cc(/C=N/n2cnnc2)c(C)n1-c1cccc(C(=O)O)c1 : reported inhibition = 26.3

Record summary for O=C(O)c1ccccc1C(=O)Nc1nc(-c2ccccc2)cs1 : reported inhibition = -11.1

Record summary for O=S(=O)(c1ccccc1)N(Cc1cccc(F)c1)c1ccccc1 : reported inhibition = -4.98

Record summary for O=c1cc(Cl)c2ccccc2n1-c1ccccc1 : reported inhibition = -8.33

Record summary for Cc1ccc(C(=O)Nc2nnc(C3=COCCO3)o2)cc1C : reported inhibition = 12.4
